The reported measurements were obtained from PubChem BioAssay (NCI).

# Test system: SF-268 CNS
# protocol: NCI-60 one-dose screen, 48 h (100 = growth as untreated, 0 = no growth, -100 = all killed)
# experimental.context: 10 µM unless noted
About 83,000 compounds went through this panel and 20% of them were active in at least one assay; those are over-represented in the sample as a whole.
readout.kind: growth (%)
The figure you give is taken to be in %; do not add the unit.

| compound | display.unit | growth |
| --- | --- | --- |
| CC1(C)N=C(N)N=C(N)N1c1ccc(CCCCc2ccc(Cl)c(S(=O)(=O)F)c2)c(Cl)c1 | % | 18.7 |

query: I am curious: what growth value has been reported for `CCOc1ccc(/C=C/[N+](=O)[O-])cc1` ?
result: 98.9

query: // query growth value for entry C[C@]12CC[C@H]3[C@@H](CC4SC(N)=NC45C/C(=N/NC(N)=O)CC[C@]35C)[C@@H]1CCC2=O (stereo not given in full)
result: -6.41

query: Endpoint output: growth of `COc1cc2ncnc(Nc3ccc(F)c(Cl)c3)c2cc1OCC(=O)N1CCN(C)CC1` . Value?
result: 73.6

query: If you can, please state the reported growth value of `O=Cc1cn(Cc2ccc(Cl)cc2)c2ccccc12` .
result: 89.6

query: Look up growth: `COc1ccc(C(=O)c2cc(OC)c(OC)c(OC)c2)cc1OC(C)=O`
result: 41.9

query: So what's the measured growth for this one? CCC1CN1CCCCN1CC1CC (stereo not given)
result: 103

query: Fill in the blank: the reported growth of N#CC1(C#N)C(c2ccc(N(CCCl)CCCl)cc2)OC23CCCCC2C1(C#N)C(=N)O3 (stereo not given) is ____.
result: 69.6

query: I'd like to know its growth. The compound in question is `COc1cc(/C=C/[N+](=O)[O-])c([N+](=O)[O-])cc1OC`
result: 48.3

query: Could you tell me which growth is on file for CCC1(C)CC(CCNCc2ccccc2O)(c2ccc(C)cc2)CCO1 (stereo not given) ?
result: 105
